B1: Twister Ribozyme (parent)
chain: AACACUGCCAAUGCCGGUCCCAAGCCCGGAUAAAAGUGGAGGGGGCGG

# Variants of: B1
# EXPERIMENT_NOTES: self-cleavage, relative activity (ratio to wild type); higher = more cleavage; co-transcriptional
Where self-cleavage equals or exceeds 0.1, the correct label is satisfied; where it does not, the label is not satisfied.

The following variants have reported results that may help.
[[record]]
entry_sequence = "GACACUGCCAAUGGCGGUCCCAAGCCCGGAUAAAAGUGGAGGGGGCGG [A1G C14G]"
assigned_class = "satisfied"

[[record]]
entry_sequence = "AACACUGUCAAUGCCGGUCCCAAGUCCGGAUAAAAGUGGAGGGGGCGG [C8U C25U]"
assigned_class = "satisfied"

[[record]]
entry_sequence = "AACACUGCCAAUCCCGGUCCCAAGCCCGGAUAAAAGCGGAGGGGGCGG [G13C U37C]"
assigned_class = "satisfied"

[[record]]
entry_sequence = "AACACUCCCAAUGCCGGUCCCAAGCCCGGACAAAAGUGGAGGGGGCGG [G7C U31C]"
assigned_class = "not satisfied"

[[record]]
entry_sequence = "AACACUUCCAAUGCCGGUCCCAAGCCCGGAUAAAAAUGGAGGGGGCGG [G7U G36A]"
assigned_class = "not satisfied"

[[record]]
entry_sequence = "AACACUGCCAAUGCCGGUCCCAAGCACGGAUAAAAGCGGAGGGGGCGG [C26A U37C]"
assigned_class = "satisfied"

[[record]]
entry_sequence = "AAGACUGCCAAUGCCGGUCCUAAGCCCGGAUAAAAGUGGAGGGGGCGG [C3G C21U]"
assigned_class = "not satisfied"

[[record]]
entry_sequence = "AUCACUGCCAAUGCCGGUCCCAAGCCGGGAUAAAAGUGGAGGGGGCGG [A2U C27G]"
assigned_class = "satisfied"


query: Does AACACUACCAAUGCCGGUCCCAAGCCUGGAUAAAAGUGGAGGGGGCGG [G7A C27U] have a reported self-cleavage of at least 0.1?
result: satisfied

query: Answer whether self-cleavage of AACACUGCCAAUUCCUGUCCCAAGCCCGGAUAAAAGUGGAGGGGGCGG [G13U G16U] is greater than or equal to 0.1.
result: satisfied

query: Is self-cleavage at least 0.1? Consider AACACUGCCAAUGCCGGUCCCAAGCCCGGAUGAAAGUGGAGAGGGCGG [A32G G42A]
result: satisfied

query: Determine whether this variant has self-cleavage no lower than 0.1: AACACUGCCAUUGCCGGUCCCAAGCCCGGAUUAAAGUGGAGGGGGCGG [A11U A32U]
result: satisfied

query: Given AACACUGCCAAUGCCGGUGCAAAGCCCGGAUAAAAGUGGAGGGGGCGG [C19G C21A] , state whether its self-cleavage is at least 0.1.
result: not satisfied

query: Please indicate if the recorded self-cleavage for AACACUGCUAAUGCCGGUCCCAAGCCCGGAUAAAAGUGGGGGGGGCGG [C9U A40G] meets or exceeds 0.1.
result: satisfied

query: Determine whether measured self-cleavage meets or exceeds 0.1 for AAGACUGCCAAUGCCGGUCCCAAGCCCGGAUAAAAGAGGAGGGGGCGG [C3G U37A]
result: satisfied

query: Say whether AACACUGCCAAUGCCGGUCCCAAGGCCGGAUAAAAGUGGAGGAGGCGG [C25G G43A] shows self-cleavage of 0.1 or more.
result: satisfied

query: Hello, I need to know if AACACUGCCAGCGCCGGUCCCAAGCCCGGAUAAAAGUGGAGGGGGCGG [A11G U12C] has measured self-cleavage not below 0.1. Thanks!
result: satisfied

query: Answer whether self-cleavage of AACACUGCCAAUGCCGGUCCCAAGCCCGCAUAAAAGGGGAGGGGGCGG [G29C U37G] is greater than or equal to 0.1.
result: satisfied

query: Answer whether self-cleavage of AACACUGCCAAUGCCGGUCCCAAGCCCGGAUAAAAGUAGAGGAGGCGG [G38A G43A] is greater than or equal to 0.1.
result: satisfied

query: Is self-cleavage at least 0.1? Consider AACACUGCCAAUGCCGGUCCCAAGCCCGGAUAAAAGGGGAGGGGGCAG [U37G G47A]
result: satisfied

query: Is self-cleavage for AAACCUGCCAAUGCCGGUCCCAAGCCCGGAUAAAAGUGGAGGGGGCGG [C3A A4C] at or above 0.1?
result: not satisfied

Ref: the RNAGym collection of RNA variant scans (doi:10.7554/elife.80360)
